All figures here come from patent US5089401A.

molecular target: β-fructofuranosidase (Microbacterium saccharophilum); construct: K-1 culture; crude supernatant or purified preparation; experiment: decomposition of saccharides by the β-fructofuranosidase (substrate specificity); type: biochemical, Arthrobacter sp. K-1
Sequence (Q8VW87 37-578): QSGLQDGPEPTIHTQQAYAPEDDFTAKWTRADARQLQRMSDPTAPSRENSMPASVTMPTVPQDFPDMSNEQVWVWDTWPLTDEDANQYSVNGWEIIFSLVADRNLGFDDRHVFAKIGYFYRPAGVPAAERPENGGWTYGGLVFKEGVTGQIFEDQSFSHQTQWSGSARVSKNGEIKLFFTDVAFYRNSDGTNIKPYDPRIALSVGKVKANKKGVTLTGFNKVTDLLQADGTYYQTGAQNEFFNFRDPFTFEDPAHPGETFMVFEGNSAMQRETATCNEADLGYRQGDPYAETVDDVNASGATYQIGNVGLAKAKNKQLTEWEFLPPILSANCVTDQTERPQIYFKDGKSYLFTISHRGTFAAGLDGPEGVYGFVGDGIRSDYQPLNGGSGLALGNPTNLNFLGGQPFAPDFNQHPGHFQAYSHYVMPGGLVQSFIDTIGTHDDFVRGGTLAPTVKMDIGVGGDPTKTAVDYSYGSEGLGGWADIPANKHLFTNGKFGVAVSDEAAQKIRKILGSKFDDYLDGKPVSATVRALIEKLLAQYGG
ENDPOINT_LABEL: activity of the enzyme in the decomposition of the saccharide

OC[C@H]1O[C@@](CO)(OC[C@@]2(OC[C@@]3(O[C@H]4O[C@H](CO)[C@@H](O)[C@H](O)[C@H]4O)O[C@H](CO)[C@@H](O)[C@@H]3O)O[C@H](CO)[C@@H](O)[C@@H]2O)[C@@H](O)[C@@H]1O    hardly exhibits activity
OC[C@H]1O[C@@](CO)(OC[C@H]2O[C@](O)(CO)[C@@H](O)[C@@H]2O)[C@@H](O)[C@@H]1O    hardly exhibits activity
OC[C@H]1O[C@@](CO)(OC[C@@]2(O[C@H]3O[C@H](CO)[C@@H](O)[C@H](O)[C@H]3O)O[C@H](CO)[C@@H](O)[C@@H]2O)[C@@H](O)[C@@H]1O    hardly exhibits activity
